# TARGET SYSTEM: T1, human CD131 (human, UniProt P32927 17-897)
# T1 sequence: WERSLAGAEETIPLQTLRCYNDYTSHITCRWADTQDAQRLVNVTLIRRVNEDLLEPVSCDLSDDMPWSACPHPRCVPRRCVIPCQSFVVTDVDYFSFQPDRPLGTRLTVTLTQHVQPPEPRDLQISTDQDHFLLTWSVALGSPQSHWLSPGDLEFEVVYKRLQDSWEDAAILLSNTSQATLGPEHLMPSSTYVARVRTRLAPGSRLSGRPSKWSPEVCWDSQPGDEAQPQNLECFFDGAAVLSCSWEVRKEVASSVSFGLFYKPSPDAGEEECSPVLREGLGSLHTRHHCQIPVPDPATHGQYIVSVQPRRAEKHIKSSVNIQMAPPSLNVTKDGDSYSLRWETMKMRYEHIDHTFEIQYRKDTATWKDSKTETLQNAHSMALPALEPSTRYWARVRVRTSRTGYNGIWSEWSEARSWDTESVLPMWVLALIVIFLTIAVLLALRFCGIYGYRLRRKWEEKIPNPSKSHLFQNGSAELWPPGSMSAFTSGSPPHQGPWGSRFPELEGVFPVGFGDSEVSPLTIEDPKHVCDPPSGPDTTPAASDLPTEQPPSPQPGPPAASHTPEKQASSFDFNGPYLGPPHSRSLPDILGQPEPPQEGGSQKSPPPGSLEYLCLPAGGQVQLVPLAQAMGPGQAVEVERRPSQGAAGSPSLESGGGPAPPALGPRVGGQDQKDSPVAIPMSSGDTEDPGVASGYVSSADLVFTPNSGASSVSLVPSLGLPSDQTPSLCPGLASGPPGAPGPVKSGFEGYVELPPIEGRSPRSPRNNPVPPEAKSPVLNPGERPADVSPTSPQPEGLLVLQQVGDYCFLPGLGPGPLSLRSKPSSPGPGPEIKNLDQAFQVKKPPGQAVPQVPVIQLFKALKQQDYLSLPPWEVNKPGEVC
# ASSAY REMARKS: cell-based or functional assay
OUTCOME MEASURE: IC50 GM-CSF, TF-1 proliferation (nM)
Your answer is read as nM, so omit the unit and give the number.

Below, each entry is followed by its recorded IC50 GM-CSF, TF-1 proliferation result.
9A2-VR24.131 (antibody, V domains shown) VH: EVQLLESGGGLVQPGGSLRLSCAASGFTFPWYRVHWVRQAPGKGLEWVSSIRSSGGFTYYNPSVMGRFTISRDNSKNTLYLQMNSLRAEDTAVYYCARFYDSFFDIWGQGTMVTVSS VL: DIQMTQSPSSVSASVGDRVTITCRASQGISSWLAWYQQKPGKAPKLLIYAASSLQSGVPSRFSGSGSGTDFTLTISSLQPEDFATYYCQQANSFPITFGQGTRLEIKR ... 1.06
9A2-VR39.16 (antibody, V domains shown) VH: EVQLLESGGGLVQPGGSLRLSCAASGFTFQWFNIVWVRQAPGKGLEWVSSINGRGRVTYYADSVKGRFTISRDNSKNTLYLQMNSLRAEDTAVYYCARFYDSFFDIWGQGTMVTVSS VL: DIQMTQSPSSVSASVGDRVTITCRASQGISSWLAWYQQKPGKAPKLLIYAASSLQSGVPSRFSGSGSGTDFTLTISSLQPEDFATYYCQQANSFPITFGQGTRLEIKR ... 6.07

// query Entry under review: 9A2-VR39.177 (antibody, V domains shown) VH: EVQLLESGGGLVQPGGSLRLSCAASGFTFSHYHMLWVRQAPGKGLEWVSSINGRGRVTYYALEYKKRFTISRDNSKNTLYLQMNSLRAEDTAVYYCARFYDSFFDIWGQGTMVTVSS VL: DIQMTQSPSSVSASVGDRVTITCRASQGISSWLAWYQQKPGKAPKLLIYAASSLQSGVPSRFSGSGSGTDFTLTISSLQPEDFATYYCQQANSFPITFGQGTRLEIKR . Reported IC50 GM-CSF, TF-1 proliferation?
// result 0.52

// data source = patent US20190062438A1
